Biological target: collectin-11 (CL-11, CL-K1) (Homo sapiens)
Construct: recombinant homo-oligomer generated by expression of the CL-11 cDNA (isoform a)
Sequence (Q9BWP8 26-271): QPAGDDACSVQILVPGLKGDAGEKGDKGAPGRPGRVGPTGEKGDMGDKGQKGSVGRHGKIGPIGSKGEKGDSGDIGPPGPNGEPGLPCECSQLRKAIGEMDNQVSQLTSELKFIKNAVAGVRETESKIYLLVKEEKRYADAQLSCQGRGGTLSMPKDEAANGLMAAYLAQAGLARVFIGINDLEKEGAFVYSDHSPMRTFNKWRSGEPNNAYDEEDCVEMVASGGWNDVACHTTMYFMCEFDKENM
Test: competition ELISA, rCL-11 binding to immobilised yeast invertase
Quick reference: IC50 of the listed items.
attribute_measured: IC50 (mM)

[
  {
    "compound": "OC[C@H]1OC(O)[C@@H](O)[C@@H](O)[C@@H]1O (some centres unmarked)",
    "recorded_result": 11.8
  },
  {
    "compound": "C[C@@H]1OC(O)[C@@H](O)[C@H](O)[C@@H]1O (some centres unmarked)",
    "recorded_result": 12.1
  }
]
